- assay method text: glucose-independent GLuc insulin release activation – cell-based, INS-1E, Gaussia luciferase, luminescence, cherry-pick, counter-screen for glucose-dependent insulin secretion activators, dose response (AID 977606)
- reported conditions: INS-1E Gaussia luciferase insulin secretion, no glucose, 100% = twice neutral-control luminescence; series mostly up to 35 µM
The campaign covered roughly 1,500 compounds. About 430 (29%) were called active. These entries were drawn from the full list. Measured potencies and affinities stand elsewhere.
readout label: outcome

// known answers, use as guide
compound | readout label | experimental result
CNC(=O)c1[nH]nc2c1CCc1cc(OC)ccc1-2 | outcome | inactive
O=C(CCn1ccc2cc(S(=O)(=O)N3CCCC3)ccc21)NCc1cccc(F)c1 | outcome | inactive
COc1cccc(NC(=O)CN(C)C(=O)Cn2[nH]c(=O)c3ccccc3c2=O)c1 | outcome | inactive
CCn1ncc2c1C(=O)NC1c3ccccc3C(=O)N21 (centres undefined) | outcome | inactive
COc1ccc(CCNC(=O)CN2c3cccc4cccc(c34)S2(=O)=O)cc1OC | outcome | inactive

Form field outcome, entry CC(=O)N1CCN(c2nnc(-c3ccc(C)cc3)c3ccccc23)CC1 : inactive

Form field outcome, entry C=CCc1ccc(OCCOc2ccc(/C=N/n3cnnc3)cc2OCC)c(OC)c1 : inactive

Form field outcome, entry c1ccc(-c2nc(NCC3CC3)nc3ccsc23)cc1 : inactive

Form field outcome, entry NC1=NC[C@H](Cc2ccccc2)N1CCCCC1CCCCC1 : inactive

Form field outcome, entry CCCCNc1cc(Cl)nc(N)n1 : inactive

Form field outcome, entry C#Cc1cccc(-n2nnc(C(=O)OC)c2-c2ccccc2)c1 : inactive

Form field outcome, entry CN1CCN(c2ccc(CNC(=O)C3(C)Cc4c(-c5ccccc5)ccnc4O3)cc2)CC1 (centres undefined) : inactive

Form field outcome, entry CCNc1nc(NCC)nc(N(C#N)C(C)C)n1 : inactive

Form field outcome, entry CC(=O)NCCNC(=O)CNC(=O)c1ccc(Cl)cc1 : inactive

Form field outcome, entry COC(=O)CN(c1cccc(C)c1)S(=O)(=O)c1ccccc1 : inactive

====

- assay method text: glucose-independent GLuc insulin release activation – cell-based, INS-1E, Gaussia luciferase, luminescence, cherry-pick, counter-screen for glucose-dependent insulin secretion activators, dose response (AID 977606)
- reported conditions: INS-1E Gaussia luciferase insulin secretion, no glucose, 100% = twice neutral-control luminescence; series mostly up to 35 µM
Among all 1,500 compounds or so, about 430 (29%) were called active. Not all results are given here. Results with a measured potency or affinity are listed apart.
readout label: outcome

// known answers, use as guide
compound | outcome
CCCCc1nnc2c(N(C)S(=O)(=O)c3ccccc3)nc3ccccc3n12 | inactive
CCN(CC)C(=O)n1c(Cc2ccccc2)nc2ccccc21 | inactive
Clc1cc(NC2CCCCC2)ncn1 | inactive
CC(C)CCN1C(=O)CSCC1(C)C(=O)NC(C)C (stereo unspecified) | inactive
O=C(COc1ccccc1)N(Cc1cccc(F)c1)C1CCS(=O)(=O)C1 (stereo unspecified) | inactive
CCOC(=O)c1c(C)[nH]c(C(=O)COC(=O)c2cnccn2)c1C | inactive

Form field outcome, entry CCC(CC)NC(=O)CN1CCN(S(=O)(=O)c2cccs2)CC1 : inactive

Form field outcome, entry O=C(CCCC(=O)c1ccccc1)NCc1ccccc1 : inactive

Form field outcome, entry O=C(c1cc(-c2ccccc2)nc2ccccc12)N1CCCC1 : inactive

Form field outcome, entry COc1ccc(-c2ocnc2C(=O)Nc2ccc(N3CCOCC3)cc2N2CCOCC2)cc1OC : inactive

Form field outcome, entry Cc1ccc(-n2ncc3c2CC(C)(C)CC3NC(=O)CCCN2CCCC2=O)cc1 (stereo unspecified) : inactive

====

- assay method text: glucose-independent GLuc insulin release activation – cell-based, INS-1E, Gaussia luciferase, luminescence, cherry-pick, counter-screen for glucose-dependent insulin secretion activators, dose response (AID 977606)
- reported conditions: INS-1E Gaussia luciferase insulin secretion, no glucose, 100% = twice neutral-control luminescence; series mostly up to 35 µM
Out of some 1,500 compounds screened, about 430 (29%) were called active. Not all results are given here. Entries with a potency or affinity are not part of this list.
readout label: outcome

compound | outcome
COc1ccc(-c2cc(C(=O)N(C)Cc3ccc(OC)c(OC)c3OC)c3ccccc3n2)cc1OC | inactive
CCOc1ccc(CCNC(=O)CCC(=O)c2cccs2)cc1OCC | inactive
COc1ccc(CCN=C(N)NS(=O)(=O)c2ccc(C)c(C)c2)cc1OC | inactive
COc1cc(C(C(=O)NC2CCCC2)N(Cc2ccco2)C(=O)c2snc(C(N)=O)c2N)cc(OC)c1OC (stereo not given) | inactive

Form field outcome, entry N=c1n(CCN2CCCCC2)c2ccccc2n1CC(O)COc1ccccc1 (stereo not given) : inactive

Form field outcome, entry CC(Oc1ccccc1Cl)C(=O)Nc1ccc(S(=O)(=O)Nc2nccs2)cc1 (stereo not given) : inactive

Form field outcome, entry CCSc1nnc(-c2cccnc2)n1-c1ccc(C)c(Cl)c1 : inactive

====

- assay method text: glucose-independent GLuc insulin release activation – cell-based, INS-1E, Gaussia luciferase, luminescence, cherry-pick, counter-screen for glucose-dependent insulin secretion activators, dose response (AID 977606)
- reported conditions: INS-1E Gaussia luciferase insulin secretion, no glucose, 100% = twice neutral-control luminescence; series mostly up to 35 µM
Hit rate of the full screen: of about 1,500 compounds, about 430 (29%) were called active. A selection follows. Results with a measured potency or affinity are listed apart.
readout label: outcome

// known answers, use as guide
compound | outcome
CN(c1ccc(C(=O)N2CCN(Cc3ccccc3)CC2)cc1)S(=O)(=O)c1ccccc1 | inactive
O=C(CC1SC2=NCCN2C1=O)Nc1ccc(Br)cc1 (centres undefined) | inactive
CCOC(=O)c1cnc2ccc(Cl)cc2c1Nc1ccc(S(=O)(=O)Nc2ncccn2)cc1 | inactive
CCc1cc(=O)oc2c(CNCc3ccc(OC)cc3OC)c(O)c(Cl)cc12 | inactive
CS(=O)(=O)c1nc(S(=O)(=O)c2ccc(Cl)cc2)c(N2CCCCCC2)s1 | inactive
O=C(c1ccccc1)N(C(=O)c1ccccc1)N1CCCC1 | inactive
COc1ccc(C(=O)Nc2nnc(-c3ccco3)s2)cc1 | inactive
COc1ccc(-c2nc(-c3cccnc3)no2)cc1OC | inactive

Form field outcome, entry CCCNC(=O)C1(C)CCN(C(=O)c2cccc(C(F)(F)F)c2)C1 (centres undefined) : inactive

Form field outcome, entry COc1ccc(CCNS(=O)(=O)c2cccc(C)c2)cc1OC : inactive

Form field outcome, entry CCSc1nnc2ccc(-c3ccc(C)cc3)nn12 : inactive

Form field outcome, entry COC(=O)[C@]1(Cc2ccccc2)N[C@H](CN(C)C(=O)Nc2ccc(C)cc2)[C@@H]2C(=O)N(C)C(=O)[C@@H]21 : inactive

Form field outcome, entry CN(C(=O)[C@H]1O[C@@H](n2cnc(C(N)=O)n2)[C@H](O)[C@@H]1O)c1ccccc1 : inactive

Form field outcome, entry CC(=O)c1cccc(Nc2ncnc3ccc(Br)cc23)c1 : inactive

====

- assay method text: glucose-independent GLuc insulin release activation – cell-based, INS-1E, Gaussia luciferase, luminescence, cherry-pick, counter-screen for glucose-dependent insulin secretion activators, dose response (AID 977606)
- reported conditions: INS-1E Gaussia luciferase insulin secretion, no glucose, 100% = twice neutral-control luminescence; series mostly up to 35 µM
The whole screen tested about 1,500 compounds, of which about 430 (29%) were called active. These entries were drawn from the full list. Measured potencies and affinities stand elsewhere.
readout label: outcome

// known answers, use as guide
chemical structure | outcome
O=C(O)COc1ccccc1-c1ccccc1 | inactive
CCOc1ccc(CCNC(=O)COC(=O)c2nccnc2N)cc1OCC | inactive
CCCCn1c(=O)n(C)c(=O)c2c3c(sc21)COC(C)(C)C3 | inactive
Cc1ccc(C)c(OCC(=O)Nc2cc(NC(=O)COc3cc(C)ccc3C)cc(C(=O)O)c2)c1 | inactive

Form field outcome, entry COc1ccc(/C=N/NC(=O)CN(C2=NS(=O)(=O)c3ccccc32)c2ccccc2)cc1OC : inactive

====

- assay method text: glucose-independent GLuc insulin release activation – cell-based, INS-1E, Gaussia luciferase, luminescence, cherry-pick, counter-screen for glucose-dependent insulin secretion activators, dose response (AID 977606)
- reported conditions: INS-1E Gaussia luciferase insulin secretion, no glucose, 100% = twice neutral-control luminescence; series mostly up to 35 µM
Hit rate of the full screen: of about 1,500 compounds, about 430 (29%) were called active. These entries were drawn from the full list. Entries with a potency or affinity are not part of this list.

compound | outcome
CC(Oc1ccc2c3c(c(=O)oc2c1)CCCC3)C(=O)NCc1cccnc1 (stereo not drawn) | inactive
COc1ccc2nc3ccccc3nc2c1NC(=O)c1ccc(Cl)cc1 | inactive
N#Cc1sc2nc3c(c(-c4cccnc4)c2c1N)CCC3 | inactive

Attribution: PubChem BioAssay AID977606
